test_summary: gradient 5% acetonitrile 3 min, to 50% in 2 min, to 85% in 15 min, held 3 min, 100 µL/min
conditions: column: Zorbax Extend-C18 2.1 x 50 mm; eluents: water / acetonitrile, 0.1% formic acid
readout_label: RP-LC retention time
Please answer using the number first and the unit second.

Entry under review: `Cn1nc(-c2nnc(-c3ccccc3)o2)c2c1CCN(S(=O)(=O)c1ccc3c(c1)CCCC3)C2` . Reported RP-LC retention time?
1110 s

Queued: Cc1cnc(C(=O)N2CCCCCC2c2nnc(C)o2)cn1 (centres undefined)
649 s

Queued: CCc1cccc(NC(=O)c2cc3n(n2)CC(C)(C(=O)NC2CCCC2)N(CC)C3=O)c1 (centres undefined)
605 s

Queued: `COc1cc(Cl)c(NC(=O)C2CCN(C(=O)c3cc(-c4ccncc4)n[nH]3)CC2)c(OC)c1`
629 s

Queued: `CCc1ccc(C2=C(C)C(N3CCCN(C(=O)NC)CC3)=NS2(=O)=O)cc1`
746 s

Queued: `O=C(NC1CC1)[C@@H]1C[C@H](Oc2ccccc2)CN1C(=O)COc1ccc(F)cc1`
813 s

Queued: `CCOc1ccc(-c2noc(Cn3ncn4nc(-c5ccc(OC)cc5)cc4c3=O)n2)cc1OC`
1040 s

Queued: `CCc1noc(-c2cccnc2N2CCCN(Cc3cccc(C)c3)CC2)n1`
690 s

Queued: `O=C(Nc1cnc(-c2ccc(F)cc2)nc1)c1ccc(F)cc1`
1000 s

Queued: `Cc1ccc(CNC(=O)N2CCC3(CC2)NC(=O)c2cccc(Cl)c2N3)cc1`
773 s

Queued: `Cn1ncc2c3ccccc3n(CCCC(=O)NCCc3cccs3)c2c1=O`
834 s

Queued: CCN1CCCC1CNC(=O)c1nc(-c2oc3c(C)cccc3c2C)no1 (centres undefined)
670 s

Queued: Cc1nn(C)c(C)c1CCN(C)C(=O)C1CCCCC(=O)N1C (centres undefined)
582 s

Queued: `CCCC(=O)NCCn1c(=O)n(Cc2cccc(C)c2)c2cccnc21`
759 s

Queued: `O=C(Cn1cccc1-c1nnc(-c2ccccc2)o1)N1CCN(Cc2ccc3c(c2)OCO3)CC1`
709 s

Queued: `COCc1cc(=O)n(Cc2cccc(OC)c2)c(N2CCCC2)n1`
764 s

Queued: COC(=O)c1ncn2c1C(=O)N(CCCc1ccccc1)C(C)(C(=O)NCc1ccccc1)C2 (centres undefined)
761 s

Queued: `CC(C)c1ccc(NC(=O)Cn2cnc3c2c(=O)n(C)c(=O)n3C)cc1`
816 s

Queued: `COc1ccccc1-n1nnc(C(=O)OCc2nc(-c3cccc(Cl)c3)oc2C)c1C`
1160 s
